- Tested on: S. aureus 195
- experiment_summary: MIC against standard strains (Test Example 3)
- Format: cell-based
- run_parameters: Staphylococcus aureus; S. aureus 195 (MRSA) (Test Example 3); read-out: MIC
- Method: By using each test strain cultured overnight at 37°C in a Muller-Hinton broth, there was prepared a bacterial solution with a bacterial cell population of 1 x 10^6 CFU/mi of the same bouillon. […] The minimum growth inhibitory concentration was determined for each of the 21 standard strains shown in Table 3, according to the same method as used in Test Example 1. […]

compound	target	unit_abbreviation	censor_symbol	MIC
CN(C)CCn1nnnc1SCC1=C(C(=O)O)N2C(=O)[C@@H](NC(=O)Cc3csc(N)n3)[C@H]2SC1 [CTM, cefotiam, reference compound]	S. aureus 195	µg/mL	>	100
CNc1nc(-c2ccc[n+](CC3=C(C(=O)[O-])N4C(=O)[C@@H](NC(=O)/C(=N\O)c5csc(N)n5)[C@H]4SC3)c2)cs1 [Compound (10)]	S. aureus 195	µg/mL	=	3.13
Nc1nc(/C(=N/O)C(=O)N[C@@H]2C(=O)N3C(C(=O)[O-])=C(C[n+]4cccc(-c5csc(N)n5)c4)CS[C@H]23)cs1 [Compound (9)]	S. aureus 195	µg/mL	=	1.56
Cc1nc(-c2ccc[n+](CC3=C(C(=O)[O-])N4C(=O)[C@@H](NC(=O)/C(=N\O)c5csc(N)n5)[C@H]4SC3)c2)cs1 [Compound (11)]	S. aureus 195	µg/mL	=	1.56
CCN(CC)C(=O)c1ccc[n+](CC2=C(C(=O)[O-])N3C(=O)[C@@H](NC(=O)/C(=N\O)c4csc(N)n4)[C@H]3SC2)c1 [Compound (14)]	S. aureus 195	µg/mL	=	6.25

====

- System: Pseudomonas aeruginosa NCTC 10490
- experiment_summary: MIC against standard strains (Test Example 1)
- Assay type: cell-based
- run_parameters: NCTC10490, Muller-Hinton agar, 37°C overnight
Catalogue of MIC values

compound	target	censor_symbol	MIC / µg/mL
Nc1nc(/C(=N/O)C(=O)N[C@@H]2C(=O)N3C(C(=O)[O-])=C(C[n+]4ccc(-c5csc(N)n5)cc4)CS[C@H]23)cs1 [Compound (5)]	Pseudomonas aeruginosa NCTC 10490	=	1.56
CO[C@@]1(NC(=O)CSC(F)F)C(=O)N2C(C(=O)O)=C(CSc3nnnn3CCO)CO[C@@H]21 [FMOX, flomoxef, reference compound]	Pseudomonas aeruginosa NCTC 10490	>	100
CC(=O)c1ccc[n+](CC2=C(C(=O)[O-])N3C(=O)[C@@H](NC(=O)/C(=N\O)c4csc(N)n4)[C@H]3SC2)c1 [Compound (2)]	Pseudomonas aeruginosa NCTC 10490	=	3.13

====

- Tested on: P. aeruginosa NCTC10490
- experiment_summary: MIC against standard strains (Test Example 3)
- Type: cell-based
- run_parameters: Pseudomonas aeruginosa; P. aeruginosa NCTC10490 (Test Example 3); read-out: MIC
Catalogue of MIC values

compound	target	censor_symbol	MIC, µg/mL
Cc1nc(-c2cc[n+](CC3=C(C(=O)[O-])N4C(=O)[C@@H](NC(=O)/C(=N\O)c5csc(N)n5)[C@H]4SC3)cc2)cs1 [Compound (13)]	P. aeruginosa NCTC10490	=	12.5
CN(C)CCn1nnnc1SCC1=C(C(=O)O)N2C(=O)[C@@H](NC(=O)Cc3csc(N)n3)[C@H]2SC1 [CTM, cefotiam, reference compound]	P. aeruginosa NCTC10490	>	100
CCN(CC)C(=O)c1ccc[n+](CC2=C(C(=O)[O-])N3C(=O)[C@@H](NC(=O)/C(=N\O)c4csc(N)n4)[C@H]3SC2)c1 [Compound (14)]	P. aeruginosa NCTC10490	=	6.25
Nc1nc(/C(=N/O)C(=O)N[C@@H]2C(=O)N3C(C(=O)[O-])=C(C[n+]4cccc(-c5csc(N)n5)c4)CS[C@H]23)cs1 [Compound (9)]	P. aeruginosa NCTC10490	=	3.13
CNc1nc(-c2cc[n+](CC3=C(C(=O)[O-])N4C(=O)[C@@H](NC(=O)/C(=N\O)c5csc(N)n5)[C@H]4SC3)cc2)cs1 [Compound (12)]	P. aeruginosa NCTC10490	=	12.5
NC(=O)Cc1ccc[n+](CC2=C(C(=O)[O-])N3C(=O)[C@@H](NC(=O)/C(=N\O)c4csc(N)n4)[C@H]3SC2)c1 [Compound (7)]	P. aeruginosa NCTC10490	=	1.56
